Data origin: ChEMBL document CHEMBL4342498

# System: COLO 320DM
# assay_overview: Antiproliferative activity against human COLO320DM cells assessed as inhibition of cell growth measured after 4 days by CellTiter-Glo assay
# Type: functional
# setup_conditions: 96 h
endpoint: GI50 (nM)

Use the examples below as a reference point.
{"columns": ["smiles_representation", "target_desc", "GI50, nM"],
 "data": [
  ["CN1CCCc2c1nc(N1CCC3(CC1)C(=O)N(C)c1cc(OCCN4CCCC4)cc(F)c13)[nH]c2=O", "COLO 320DM", 1080],
  ["CN(C)CCOc1cc(F)c2c(c1)N(C)C(=O)C21CCN(c2nc3c(c(=O)[nH]2)CCCN3C)CC1", "COLO 320DM", 810]
]}

[I] CN1CCN(CCOc2cc(F)c3c(c2)N(C)C(=O)C32CCN(c3nc4c(c(=O)[nH]3)CCCN4C)CC2)CC1
[II] CN1CCc2c1nc(N1CCC3(CC1)C(=O)N(CCO)c1cc(F)cc(F)c13)[nH]c2=O
[III] CN1CCCc2c1nc(N1CCC3(CC1)C(=O)N(CC1COC1)c1cc(F)cc(F)c13)[nH]c2=O
With regard to GI50, arrange the entries in ascending order, please. # answer = labels listed in requested order
III, I, II

[A] Cc1cccc2c(=O)[nH]c(N3CCC4(CC3)C(=O)N(CCO)c3cc(F)cc(F)c34)nc12
[B] CN1CCCc2c1nc(N1CCC3(CC1)C(=O)N(CCO)c1cc(F)cc(F)c13)[nH]c2=O
[C] CN1CCc2c1nc(N1CCC3(CC1)CN(CCO)c1cc(F)cc(F)c13)[nH]c2=O
Falling order of GI50, please. # answer = labels listed in requested order
C, A, B
(C: 5010 nM, A: 2490 nM, B: 250 nM)
